This section presents molecules with their documented melting point values.

Some entries whose results are on file:
> print(dat)
                                   molecule         result
1    Cc1cc(-c2ccccc2)n(-c2ccc(C(=O)O)cc2)n1  159 to 162 °C
2  COc1cc(N)c(Cl)cc1C(=O)NCC1CCN(CCCCCC(=O)c2csc3ccccc23)CC1  130 to 132 °C
3  N#CC(C#N)=C1N(CCCN2CCCCC2)CCN1CCCN1CCCCC1   99 to 101 °C
4       Cc1ccnc(C)c1Cn1nnnc1-c1cccc(Cl)c1Cl  146 to 148 °C
5  CCC(C(C)=CC(CNC(=O)c1cnc2nc(C)ccc2c1O)=NO)[N+](=O)[O-] (stereo not given)  204 to 205 °C

Form field melting point, entry O=C(NCc1ccc(Cl)cc1)c1noc2ccc(C#CCO)cc2c1=O : 117 to 120 °C

Form field melting point, entry CC(C(=O)O)c1ccc(C(F)(F)F)cc1 (stereo not given) : 56 to 58 °C

Form field melting point, entry CC(C)N(Cc1ccc(COc2cccc3c2CN(C2CCC(=O)NC2=O)C3=O)cc1)C(C)C (stereo not given) : 201 to 203 °C

* * *

ENDPOINT: melting point

> print(dat)
                                   compound          result
1  COc1ccc(C2CNC(=O)C2)cc1OCC(O)CN1CCN(c2ccccc2)CC1 (stereo unspecified)   143 to 144 °C
2             CCc1noc(C)c1C(=O)Nc1cccc(F)c1  99.5 to 101 °C
3  C=C(c1ccc(N(C(=O)c2c(I)cccc2C(N)=O)C(C)C)c(C)c1)C(F)(F)F   201 to 203 °C
4  Cc1nccn1-c1nc(-c2ccc(Cl)cc2)c(CCC(=O)OCc2ccccc2)o1     71 to 72 °C
5             OCc1ccc(-c2cc3nccnc3[nH]2)cc1   284 to 285 °C

Form field melting point, entry Cn1c(=O)c2[nH]c(C3(N)CCCC3)nc2n(C)c1=O : 288 to 290 °C

Form field melting point, entry CC1=N/C(=C\c2cccnc2)C(=O)O1 : 173 °C

Form field melting point, entry CNc1ccc(C(=O)N2CCN(CCc3ccc(SC)cc3)CC2)cc1 : 120 to 121 °C

* * *

This section presents compounds with their documented melting point values.

> print(dat)
                                   compound         result
1  CCn1cc(C(=O)O)c(=O)c2cc(F)c(N3CCN(S(=O)(=O)c4ccc(NC(C)=O)cc4)CC3)c(F)c21  276 to 277 °C
2  O=C(O)C(C1CC(Cl)=NO1)N1C(=O)c2ccccc2C1=O (centres undefined)  178 to 179 °C
3  CC(C)(Oc1ccc(CCC(=O)c2cc(-c3ccc(C(F)(F)F)cc3)cs2)c(Cl)c1Cl)C(=O)O   99 to 101 °C
4  O=C(O)[C@H]1C[C@H](NC(=S)Nc2ccccc2)c2c(Cl)cc(Cl)cc2N1 (relative stereo)  186 to 187 °C

Form field melting point, entry CCCC(C)(C)C[C@@H](CC(=O)OC(C)(C)C)C(=O)N1C(=O)O[C@H](c2ccccc2)[C@@H]1C : 83 to 85 °C

Form field melting point, entry CCN1C(Oc2ccc(C)cc2)=NS(=O)(=O)N=C1Oc1ccc(C)cc1 : 302 to 304 °C

Form field melting point, entry O[C@@H]1CCC[C@H]1Nc1ccc(Cl)c(Cl)c1 (relative stereo) : 167 to 168 °C

* * *

This section presents compounds with their documented melting point values.

Some entries whose results are on file:
> print(dat)
                                   compound       endpoint         result
1  CCOC(=O)COC1CCN(C(=O)[C@H](C)CC(=O)c2ccc(C#N)cc2)CC1  melting point    97 to 98 °C
2  Cc1ccc(S(=O)(=O)OC2CCC(C)C2)cc1 (stereo unspecified)  melting point        < 30 °C
3  COc1cn(-c2cccc(-c3cnn(C)c3)c2F)nc(-c2ccnn2-c2ccccc2)c1=O  melting point  218 to 221 °C
4  C#CC1CCC2(CC1)SCC(C(C)(C)C)CS2 (stereo unspecified)  melting point    86 to 87 °C
5  CCCc1nn(C)c2c(=O)[nH]c(-c3cc(S(=O)(=O)N4C[C@@H](C)N[C@@H](C)C4)ccc3OCC)nc12  melting point  202 to 203 °C

Form field melting point, entry COc1ccc(-c2ocnc2-c2cc(OC)c(O)c(OC)c2)cc1N : 101 to 102 °C

Form field melting point, entry Cc1c(CC(=O)O)c2ccccc2c(=O)n1O : 198 to 200 °C

Form field melting point, entry CN1C(=O)C=C[C@]2(C)c3ccc(-c4cccc([N+](=O)[O-])c4)cc3CC[C@@H]12 : 175 to 177 °C

Form field melting point, entry Nc1ccc(N2CCN(CCCC(=O)c3ccc(F)cc3)CC2)nc1N : 128 to 130 °C

Form field melting point, entry Nc1nnc(C(F)(F)C(Cl)Cl)s1 : 181 to 182 °C

Form field melting point, entry CCOC(=O)c1cn(NC=O)c2c(OCc3ccccc3)c(F)c(F)cc2c1=O : 188 to 190 °C

Form field melting point, entry N#Cc1ccc(OCCCCCI)cc1 : 51 to 54 °C

Form field melting point, entry OCCC1(c2ccccc2)CCNC1 (stereo unspecified) : 106 to 110 °C

Form field melting point, entry COc1cc(C(=O)N(C)OC)c2oc(-c3ccc(OC)c(F)c3)cc2c1 : 100 to 102 °C

Form field melting point, entry CC(=O)OC1CSC(Oc2cc(C)c(Cl)cc2-c2ccno2)C(OC(C)=O)C1OC(C)=O (stereo unspecified) : 203 °C

Form field melting point, entry Cc1cccc(-c2nc(C(C)C)[nH]c2-c2ccc(F)c(-c3cnn(C)c3)c2)n1 : 77 to 97 °C

Form field melting point, entry COc1ccc(C2=C(c3c4n(c5ccccc35)CCC(CN)C4)C(=O)NC2=O)cc1 (stereo unspecified) : 195 to 196 °C

Form field melting point, entry CC12CCC3c4ccc(O)cc4CCC3(C)C1CCC2O (stereo unspecified) : 168 to 170 °C

Form field melting point, entry CN(C1CCN(CCCC(F)(F)F)CC1)S(=O)(=O)c1ccc(Nc2nccc(Nc3ccc(F)cc3)n2)cc1 : 166 to 167 °C

Form field melting point, entry CCOC(=O)CC(=O)Nc1c(F)cccc1[N+](=O)[O-] : 99 to 102 °C

* * *

ENDPOINT: melting point

Some entries whose results are on file:
> print(dat)
                                   compound         result
1  COc1ccccc1C(=O)c1[nH]c2cc(Cl)ccc2c1CC(=O)O  214 to 217 °C
2  Cc1cc2c(-c3cccc(C(F)(F)F)c3)nc(C#N)nc2s1  121 to 122 °C
3  NS(=O)(=O)c1ncnc2c1ccn2C1CC(O)C(CO)O1 (centres undefined)  175 to 177 °C

Attention now turns to another entry.
Form field melting point, entry Cc1noc(CCc2c(-c3ccccc3)c(=O)[nH]c3cc(Cl)ccc23)n1 : 235 to 238 °C

* * *

This section presents molecules with their documented melting point values.

Some entries whose results are on file:
> print(dat)
                                   molecule         result
1  CCOCc1nc2c(N)nc3cc(N4CCCCC4=O)ccc3c2n1CCCOC(C)C  205 to 206 °C
2  Cc1nnc(SCCCC(=O)NC/C=C\COc2cc(CN3CCCCC3)ccn2)s1    65 to 68 °C
3  Cc1cccc(-c2ccc3ccc(NC(=O)c4cccc(Br)c4)nc3n2)c1         100 °C
4  O=C(NCc1ccc(Cl)cc1)c1cn(-c2ccccc2)c2oc(CCl)cc2c1=O  207 to 209 °C
5  CC(C)(C)OC(=O)C1CCC(c2ccco2)N1C(=O)OC(C)(C)C (mixture of isomers)          70 °C

Form field melting point, entry COc1ccc(C(=O)c2c(N)sc(C)c2C)cc1 : 132 to 133 °C

Form field melting point, entry CCCNC(=O)C1(CCCCCSc2nc3ccc(OCC)cc3s2)c2ccccc2-c2ccccc21 : 54 to 56 °C

Form field melting point, entry COCCNc1cc(-c2c(-c3cccc(C)c3)nc3cccnn23)ccn1 : 99 to 100 °C

Form field melting point, entry COC(=O)CCCCCCc1nc(C)sc1C(=O)O : 106 to 107 °C

* * *

ENDPOINT: melting point

Some entries whose results are on file:
> print(dat)
                                   compound       endpoint         result
1     c1ccc(-c2ccc3[nH]nc(Nc4nccs4)c3c2)nc1  melting point  234 to 236 °C
2  COc1ccc(CC2N(C)CCC(OC)(OC)C2(C)C)cc1 (stereo unspecified)  melting point  91 to 92.5 °C
3  C/C(=C\CC1OC(=O)NC1=O)c1cccc(OCCc2nc(-c3ccccc3)oc2C)c1 (stereo unspecified)  melting point  100 to 101 °C
4             Cc1cccc(CC(=O)c2ccnc(Br)c2)n1  melting point         126 °C
5  CC1(C)C(C=C2CCCC2)C1C(=O)OC(C#N)c1ccc(F)c(Oc2ccccc2)c1 (stereo unspecified)  melting point          81 °C

Attention now turns to another entry.
Form field melting point, entry CC(C)CN1CCn2c1nc1[nH]cnc1c2=O : 233 to 237 °C

Data origin: a melting point compilation (Tetko et al.; mined from patent text by program, amines drawn as free bases though some values may be those of a salt)
